# Tgt: MCR-1 (Homo sapiens, UniProt Q01726)
# Construct: expressed in transfected cells; host or cells: HEK 293
# Sequence (Q01726 whole entry): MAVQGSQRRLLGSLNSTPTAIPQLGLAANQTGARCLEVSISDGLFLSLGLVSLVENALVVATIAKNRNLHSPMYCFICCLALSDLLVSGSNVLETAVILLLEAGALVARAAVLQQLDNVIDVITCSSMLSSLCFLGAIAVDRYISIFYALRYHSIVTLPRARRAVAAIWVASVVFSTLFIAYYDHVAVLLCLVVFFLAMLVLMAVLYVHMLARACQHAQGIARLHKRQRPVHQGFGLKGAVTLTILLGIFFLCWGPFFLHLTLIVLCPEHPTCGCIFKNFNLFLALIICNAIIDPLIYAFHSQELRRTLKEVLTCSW
# Assay comment: Melanocortin receptor binding assay, competition with 125I-HP 467, HEK 293 cells expressing hMCR-1
# Stated conditions: displacement of 125I-HP 467 at 10 μM isoquinoline compound; second of duplicate
Listing: % Disp. MC-1 10 μM of selected compounds
Supply the numeric figure in %, leaving out any unit text.

Compound	% Disp. MC-1 10 μM [%]
CNC(CN)CN1Cc2ccccc2C(CNC2CCCCC2)C1c1ccc(N(C)C)cc1 (stereo not drawn) [TRG 2405-145]	49.7
CNC(CN)CN1Cc2ccccc2C(CNC2CCCCC2)C1c1ccc(OC)c(C)c1 (mixture of isomers) [TRG 2405-136]	51.8
COc1ccc(C2C(CNC3CCCCC3)c3ccccc3CN2CCN)c2ccccc12 (stereo not drawn) [TRG 2405-68]	52.3
CNC(CN)CN1Cc2ccccc2C(CNC2CCCCC2)C1c1ccccc1CN (stereo not drawn) [TRG 2405-105]	49.9
COc1ccccc1C1C(CNC2CCCCC2)c2ccccc2CN1CCN (stereo not drawn) [TRG 2405-19]	36.2
CC(C)c1ccc(C2C(CNC3CCCCC3)c3ccccc3CN2CCN)cc1 (stereo not drawn) [TRG 2405-67]	51.3
CNC(CN)CN1Cc2ccccc2C(CNC2CCCCC2)C1c1ccc(C)o1 (stereo not drawn) [TRG 2405-169]	51.5
NCCN1Cc2ccccc2C(CNC2CCCCC2)C1c1ccncc1 (stereo not drawn) [TRG 2405-74]	0

Look up % Disp. MC-1 10 μM for this compound: CNC(CN)CN1Cc2ccccc2C(CNC2CCCCC2)C1c1ccccc1Br (stereo not drawn) [TRG 2405-102]
50.4

Look up % Disp. MC-1 10 μM for this compound: CNC(CN)CN1Cc2ccccc2C(CNC2CCCCC2)C1c1ccc(Cl)c(Cl)c1 (stereo not drawn) [TRG 2405-116]
63

Look up % Disp. MC-1 10 μM for this compound: NCCN1Cc2ccccc2C(CNC2CCCCC2)C1c1ccc(F)cc1 (stereo not drawn) [TRG 2405-65]
33.9

Look up % Disp. MC-1 10 μM for this compound: CSc1ccc(C2C(CNC3CCCCC3)c3ccccc3CN2CCN)cc1 (stereo not drawn) [TRG 2405-57]
42.6

Look up % Disp. MC-1 10 μM for this compound: CNC(CN)CN1Cc2ccccc2C(CNC2CCCCC2)C1c1c(F)cccc1F (stereo not drawn) [TRG 2405-101]
45.3

Look up % Disp. MC-1 10 μM for this compound: CNC(CN)CN1Cc2ccccc2C(CNC2CCCCC2)C1c1ccc(OC)c(F)c1 (stereo not drawn) [TRG 2405-130]
43.3

Look up % Disp. MC-1 10 μM for this compound: CN(C)CCCOc1ccc(C2C(CNC3CCCCC3)c3ccccc3CN2CCN)cc1 (stereo not drawn) [TRG 2405-54]
9

Look up % Disp. MC-1 10 μM for this compound: NCCN1Cc2ccccc2C(CNC2CCCCC2)C1c1ccc([N+](=O)[O-])c(O)c1 (stereo not drawn) [TRG 2405-70]
46.7

Look up % Disp. MC-1 10 μM for this compound: NCCN1Cc2ccccc2C(CNC2CCCCC2)C1c1ccc2ccccc2n1 (stereo not drawn) [TRG 2405-22]
43.4

Look up % Disp. MC-1 10 μM for this compound: CNC(CN)CN1Cc2ccccc2C(CNC2CCCCC2)C1c1ccoc1 (stereo not drawn) [TRG 2405-132]
51.7
